Where do these numbers come from? They come from patent US9802942B2.

Biological target: glucocerebrosidase (GCase), recombinant wt. enzyme velaglucerase alfa (Homo sapiens)
Construct: purchased Shire Human Genetic Therapies, Inc. Vpriv
Test: Glucocerebrosidase activity assay with blue substrate (4MU-Glc)
Format: biochemical
Details: Table 1; titration 24 nM to 50 μM; substrate not given; read-out: Ac50
READOUT LABEL: AC50 (µM)
Answers are plain numbers, in µM.

For the molecule `Cc1cc(C)n2ccc(C(=O)Nc3ccc(OCCC(=O)O)cc3)c2n1` , what AC50 is on record?
15.8

For the molecule `Cc1cc(C)n2ccc(C(=O)Nc3nccc4ccccc34)c2n1` , what AC50 is on record?
39.8

For the molecule `Cc1cc(C)n2ccc(C(=O)Nc3ccc(N(C)C)cc3)c2n1` , what AC50 is on record?
3.55

For the molecule `Cc1cc(C)n2ccc(C(=O)Nc3ccc(Cc4ccccc4)cc3)c2n1` , what AC50 is on record?
0.79

For the molecule `Cc1cc(C)n2ccc(C(=O)Nc3ccc(CCO)cc3)c2n1` , what AC50 is on record?
2.82

Working through the 3 molecules below one at a time, give AC50 for each.
1. Cc1cc(C)n2ccc(C(=O)Nc3ccc(N4CCC(N(C)C)CC4)cc3)c2n1
2. Cc1cc(C)n2ccc(C(=O)Nc3ccc(-c4cn(CCCCC(=O)O)nn4)cc3)c2n1
3. Cc1cc(C)n2ccc(C(=O)Nc3ccc(N4CCCCC4)cc3)c2n1

1. 10
2. 7.08
3. 1.58

Working through the 8 molecules below one at a time, give AC50 for each.
1. Cc1cc(C)n2ccc(C(=O)Nc3ccc(-c4ccccc4)cc3)c2n1
2. Cc1cc(C)n2ccc(C(=O)Nc3ccc(-c4cn(CCOCCOCCC(=O)NCCC5CCCN5C)nn4)cc3)c2n1 (stereo not drawn)
3. Cc1cc(C)n2ccc(C(=O)Nc3nc4c(C)cccc4s3)c2n1
4. Cc1cc(C)n2ccc(C(=O)Nc3ccc(-c4cn(CCCCCCCCC(=O)ON5C(=O)CCC5=O)nn4)cc3)c2n1
5. Cc1cc(C)n2ccc(C(=O)Nc3ccc(CN4CCN(C)CC4)cc3)c2n1
6. Cc1cc(C)n2ccc(C(=O)Nc3ccc(-c4cn(CCOCCOCCC(=O)NC5CCC5)nn4)cc3)c2n1
7. Cc1cc(C)n2ccc(C(=O)Nc3ccc(C(F)(F)F)cc3)c2n1
8. Cc1cc(C)n2ccc(C(=O)Nc3ccc(N4CCCC4)cc3)c2n1

[1.41, 10, 0.2, 0.45, 39.8, 3.55, 0.8, 0.51]

Working through the 2 molecules below one at a time, give AC50 for each.
1. Cc1cc(C)n2ccc(C(=O)NCc3cccs3)c2n1
2. Cc1cc(C)n2ccc(C(=O)NC3CCC(N(C)C)CC3)c2n1 (stereo not drawn)

1. 15.8
2. 40

====

Biological target: glucocerebrosidase (GCase), recombinant wt. enzyme velaglucerase alfa (Homo sapiens, UniProt P04062)
Construct: purchased Shire Human Genetic Therapies, Inc. Vpriv
Sequence (P04062 40-536): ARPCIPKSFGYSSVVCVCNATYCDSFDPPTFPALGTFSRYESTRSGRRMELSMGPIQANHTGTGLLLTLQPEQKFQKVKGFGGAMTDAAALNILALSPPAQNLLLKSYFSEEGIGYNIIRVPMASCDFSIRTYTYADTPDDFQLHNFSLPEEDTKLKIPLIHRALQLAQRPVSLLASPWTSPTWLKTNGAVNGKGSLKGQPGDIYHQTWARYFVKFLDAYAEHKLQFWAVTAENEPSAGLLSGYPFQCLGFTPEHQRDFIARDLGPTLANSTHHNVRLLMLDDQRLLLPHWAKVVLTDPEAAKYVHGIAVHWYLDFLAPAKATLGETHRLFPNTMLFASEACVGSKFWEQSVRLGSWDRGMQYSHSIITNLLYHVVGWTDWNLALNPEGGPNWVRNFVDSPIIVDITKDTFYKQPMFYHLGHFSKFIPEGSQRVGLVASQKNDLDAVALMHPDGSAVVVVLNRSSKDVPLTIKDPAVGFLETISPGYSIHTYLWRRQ
Assay: Glucocerebrosidase activity assay with blue substrate (4MU-Glc)
Assay type: biochemical
Settings: Table 1; titration 24 nM to 50 μM; substrate not given; read-out: Ac50
For each record, write down the corresponding log10 of AC50.
Remember, log10 of AC50, in µM.

Example results:
For the compound Cc1cc(C)n2ccc(C(=O)NC3CCc4ccccc43)c2n1 (centres unmarked) , what log10 of AC50 is on record?
0.60

For the compound `Cc1cc(C)n2ccc(C(=O)Nc3ccc(-c4cn(CCCN)nn4)cc3)c2n1` , what log10 of AC50 is on record?
0.85

Working through the 4 compounds below one at a time, give log10 of AC50 for each.
1. Cc1cc(C)n2ccc(C(=O)Nc3ccc(-c4cn(CCOCCN)nn4)cc3)c2n1
2. Cc1cc(C)n2ccc(C(=O)NC3CCN(c4ccccc4)CC3)c2n1
3. Cc1cc(C)n2ccc(C(=O)Nc3ccc(Oc4ccccc4)cc3)c2n1
4. Cc1cc(C)n2ccc(C(=O)Nc3ccc(CCN4CCCCC4)cc3)c2n1

[0.85, 1.35, -0.25, 1.60]

Working through the 2 compounds below one at a time, give log10 of AC50 for each.
1. Cc1cc(C)n2ccc(C(=O)Nc3ccc(-c4cn(CCOCCOCCC(=O)NCCN5CCOCC5)nn4)cc3)c2n1
2. Cc1cc(C)n2ccc(C(=O)NC3CCN(C(C)C)CC3)c2n1

[0.95, 1.48]
